What IC50 was measured for each of the following?
Target: Probable ATP-dependent RNA helicase DDX6 (Homo sapiens)
Sequence (P26196 whole entry): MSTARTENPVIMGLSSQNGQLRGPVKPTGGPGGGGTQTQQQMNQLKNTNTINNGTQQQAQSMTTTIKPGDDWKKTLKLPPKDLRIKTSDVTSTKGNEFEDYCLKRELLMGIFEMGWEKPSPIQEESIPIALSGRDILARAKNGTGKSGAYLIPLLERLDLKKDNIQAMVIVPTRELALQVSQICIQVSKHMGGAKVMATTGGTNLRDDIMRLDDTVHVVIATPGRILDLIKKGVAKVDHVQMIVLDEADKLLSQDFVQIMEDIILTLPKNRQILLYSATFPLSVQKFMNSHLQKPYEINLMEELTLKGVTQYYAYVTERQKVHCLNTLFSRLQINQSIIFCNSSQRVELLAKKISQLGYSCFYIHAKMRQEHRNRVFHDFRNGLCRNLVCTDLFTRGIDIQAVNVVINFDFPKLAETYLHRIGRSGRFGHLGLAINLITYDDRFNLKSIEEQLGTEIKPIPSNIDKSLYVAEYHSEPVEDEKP
Assay: Inhibition of N-terminal thioredoxin-tagged human recombinant DDX6 transformed in Escherichia coli BL21(DE3)pLysS cells

State recorded IC50 with Probable ATP-dependent RNA helicase DDX6 (Homo sapiens), entry `Cc1oc(-n2c(C)cc(/C=C(\C#N)c3nc4ccccc4[nH]3)c2C)c(C#N)c1C` , no comment.
> 4 µM

State recorded IC50 with Probable ATP-dependent RNA helicase DDX6 (Homo sapiens), entry `COc1ccc2nc(NC(=O)c3cc(C)n(-c4sc(C)cc4C#N)c3C)[nH]c2c1` , no comment.
> 100 µM

---

Target: Probable ATP-dependent RNA helicase DHX35 (Homo sapiens, UniProt Q9H5Z1)
Sequence (Q9H5Z1 whole entry): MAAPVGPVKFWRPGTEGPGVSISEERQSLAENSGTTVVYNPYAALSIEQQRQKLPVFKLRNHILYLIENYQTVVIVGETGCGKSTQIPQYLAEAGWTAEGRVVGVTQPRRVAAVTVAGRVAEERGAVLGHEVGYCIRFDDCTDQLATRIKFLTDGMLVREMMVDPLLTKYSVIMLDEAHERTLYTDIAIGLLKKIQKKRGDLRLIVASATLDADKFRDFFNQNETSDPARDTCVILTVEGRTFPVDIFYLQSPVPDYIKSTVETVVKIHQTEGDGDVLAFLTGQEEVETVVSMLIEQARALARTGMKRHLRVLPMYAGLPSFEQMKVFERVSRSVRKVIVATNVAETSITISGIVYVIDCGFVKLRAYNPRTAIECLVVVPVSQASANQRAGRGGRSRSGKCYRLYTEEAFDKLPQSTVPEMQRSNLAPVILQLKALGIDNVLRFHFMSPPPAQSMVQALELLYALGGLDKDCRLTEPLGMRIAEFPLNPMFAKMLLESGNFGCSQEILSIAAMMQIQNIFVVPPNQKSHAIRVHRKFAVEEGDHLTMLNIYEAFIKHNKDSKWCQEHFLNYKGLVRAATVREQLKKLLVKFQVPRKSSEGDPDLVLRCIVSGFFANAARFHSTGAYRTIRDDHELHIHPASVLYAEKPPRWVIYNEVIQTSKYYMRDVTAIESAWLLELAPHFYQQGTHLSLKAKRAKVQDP
Assay: Inhibition of N-terminal thioredoxin-tagged human recombinant DHX35 transformed in Escherichia coli BL21(DE3)pLysS cells
Readout: IC50

State recorded IC50 with Probable ATP-dependent RNA helicase DHX35 (Homo sapiens, UniProt Q9H5Z1), entry `COc1ccc2nc(NC(=O)c3cc(C)n(-c4sc(C)cc4C#N)c3C)[nH]c2c1` , no comment.
117 µM
